Biological target: UniProt:Q9NWZ3
Sequence (Q9NWZ3 1-460): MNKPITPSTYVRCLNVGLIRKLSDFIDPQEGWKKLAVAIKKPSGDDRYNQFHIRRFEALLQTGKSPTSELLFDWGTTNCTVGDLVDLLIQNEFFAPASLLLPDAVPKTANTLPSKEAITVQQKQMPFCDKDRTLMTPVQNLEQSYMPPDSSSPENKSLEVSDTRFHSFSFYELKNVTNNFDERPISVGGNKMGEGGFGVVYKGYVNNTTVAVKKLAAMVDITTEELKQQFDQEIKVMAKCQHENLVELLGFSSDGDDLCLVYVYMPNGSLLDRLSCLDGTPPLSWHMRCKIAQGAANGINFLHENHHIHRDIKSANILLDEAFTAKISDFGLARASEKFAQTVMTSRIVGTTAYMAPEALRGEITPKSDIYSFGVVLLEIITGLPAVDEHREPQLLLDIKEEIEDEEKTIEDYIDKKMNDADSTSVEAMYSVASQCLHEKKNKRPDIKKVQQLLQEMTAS
Experiment: Hibit fluorescence detection of proteolysis (IRAK4-HiBiT in HEK293T cells)
Format: cell-based
Design: host or cells: HEK293T (ATCC)
Conditions: IRAK4-HiBiT, HEK293T cells, 24 h
Recorded DC50 values for a group of compounds are listed next.

Check out these entries, answers already filled in.
| compound | target_or_system | recorded_metric | result |
| --- | --- | --- | --- |
| Cn1c(=O)n(C2CCC(=O)NC2=O)c2cccc(N3CCC4(CCN(C[C@H]5CC[C@H](n6cc(-n7cc(-c8cnn9ccc(N%10CCC(C)(O)CC%10)nc89)nn7)c(C(F)F)n6)CC5)CC4)CC3)c21 (stereo partly drawn) | UniProt:Q9NWZ3 | DC50 | < 0.5 nM |
| Cn1c(=O)n(C2CCC(=O)NC2=O)c2cccc(N3C4CCC3CN(C[C@H]3CC[C@H](n5cc(-n6cc(-c7ccc8cc(C(N)=O)cnn78)nn6)c(C(F)F)n5)CC3)C4)c21 (stereo partly drawn) | UniProt:Q9NWZ3 | DC50 | 1 to 5 nM |

Proceed to the following item.
Q: Sample Cn1c(=O)n(C2CCC(=O)NC2=O)c2cccc(N3CCN(C4CCN(C[C@H]5CC[C@H](n6cc(-n7cc(-c8cnn9ccc(N%10CCC(O)CC%10)nc89)nn7)c(C(F)F)n6)CC5)CC4)CC3)c21 (stereo partly drawn) — what was its DC50?
A: < 0.5 nM

* * *

Target: IRAK4 (Homo sapiens)
Sequence (Q9NWZ3 1-460): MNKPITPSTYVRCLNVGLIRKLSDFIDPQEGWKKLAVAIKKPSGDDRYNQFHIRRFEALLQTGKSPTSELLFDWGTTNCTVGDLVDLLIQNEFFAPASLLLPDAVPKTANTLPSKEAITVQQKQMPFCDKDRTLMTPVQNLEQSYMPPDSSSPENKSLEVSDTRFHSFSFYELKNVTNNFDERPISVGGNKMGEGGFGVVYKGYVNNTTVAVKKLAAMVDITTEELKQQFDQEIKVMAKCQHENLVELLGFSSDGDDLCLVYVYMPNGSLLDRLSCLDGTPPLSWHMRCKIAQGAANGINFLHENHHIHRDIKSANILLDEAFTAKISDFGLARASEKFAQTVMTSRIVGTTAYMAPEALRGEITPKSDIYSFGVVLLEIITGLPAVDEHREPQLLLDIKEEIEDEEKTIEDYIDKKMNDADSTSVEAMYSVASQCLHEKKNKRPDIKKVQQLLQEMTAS
Test: WB detection of proteolysis (Western Blot, THP-1 cells)
Type: cell-based
Conditions: Western Blot, THP-1 cells, 24 h; read-out: DC50
recorded_metric: DC50

| compound | target_or_system | DC50 |
| --- | --- | --- |
| Cn1c(=O)n(C2CCC(=O)NC2=O)c2cccc(N3CCC4(CCN(C[C@H]5CC[C@H](n6cc(-n7cc(-c8cnn9ccc(N[C@@H]%10CCCC[C@@H]%10O)nc89)nn7)c(C(F)F)n6)CC5)CC4)CC3)c21 (stereo partly shown) | IRAK4 (Homo sapiens) | < 10 nM |
| Cn1c(=O)n(C2CCC(=O)NC2=O)c2cccc(N3CCC4(CCN(C[C@H]5CC[C@H](n6cc(-n7cc(-c8cnn9ccc(N%10CCC[C@H](N)C%10)nc89)nn7)c(C(F)F)n6)CC5)CC4)CC3)c21 (stereo partly shown) | IRAK4 (Homo sapiens) | < 10 nM |
| C[C@@H]1CC2(CCN(c3cccc4c3n(C)c(=O)n4C3CCC(=O)NC3=O)CC2)CN1C[C@H]1CC[C@H](n2cc(-n3cc(-c4cnn5ccc(N6CCC[C@H](O)C6)nc45)nn3)c(C(F)F)n2)CC1 (stereo partly shown) | IRAK4 (Homo sapiens) | 10 to 30 nM |

Shifting focus to the compound that follows.
Q: Consider the compound shown here: Cn1c(=O)n(C2CCC(=O)NC2=O)c2cccc(N3CCC(N4CCN(C[C@H]5CC[C@H](n6cc(-n7cc(-c8cnn9ccc(N%10CCC[C@H](O)C%10)nc89)nn7)c(C(F)F)n6)CC5)CC4)[C@@H](F)C3)c21 (stereo partly shown) What is its recorded DC50?
A: < 10 nM

Where these numbers come from: patent EP4759807A1
